molecular target: Neu5Ac(a2-3)Gal(b1-4)[Fuc(a1-3)]GlcNAc(b1-3)GalNAc; experiment: glycan array binding signal (z-score within array); higher = stronger binding; conditions: glycan notation: IUPAC condensed, linker removed
The full list was thinned out, with the strongest signals kept by preference.
quantityKind: glycan array binding signal (z-score)
In your answer, state the number alone without any accompanying words.

LSECtin (Homo sapiens), Q6UXB4 (protein) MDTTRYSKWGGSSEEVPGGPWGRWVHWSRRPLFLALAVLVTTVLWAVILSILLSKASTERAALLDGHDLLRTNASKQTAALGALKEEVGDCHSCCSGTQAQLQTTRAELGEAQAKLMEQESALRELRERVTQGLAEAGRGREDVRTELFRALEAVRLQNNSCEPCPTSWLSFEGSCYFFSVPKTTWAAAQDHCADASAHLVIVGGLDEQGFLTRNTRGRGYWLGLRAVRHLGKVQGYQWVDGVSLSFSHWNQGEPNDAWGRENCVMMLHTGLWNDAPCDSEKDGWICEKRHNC    4.08

Next up:
What value of glycan array binding signal (z-score) has been reported for the following binder? CREG (Mus musculus), O88668 (protein) MAARAPELARSLLAALLAPALVALLVSPASGRGGRDHGDWDVDRRLPPLPPREDGPRVARFVTHVSDWGSLATISTIKEVRGWPFADIISISDGPPGEGTGEPYMYLSPLQQAVSDLQENPEATLTMSLAQTVYCRNHGFDPQSPLCVHIMMSGTVTKVNKTEEDYARDSLFVRHPEMKHWPSSHNWFFAKLKISRIWVLDYFGGPKVVTPEEYFNVTLQ
3.4
